Taken from PubChem BioAssay (NCI).

ASSAY_DETAILS: NCI Yeast Anticancer Drug Screen. Data for the rad50 strain (AID 155);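 further: 0% = growth of vehicle-only cultures of the same strain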
PROTOCOL_CONDITIONS: S. cerevisiae rad50 strain growth inhibition; at 50.0 µM (retest, dose inferred, filed as 5.0); active compounds read high
Compounds without any hit were thinned out: in the full panel of roughly 79,000, 15% have a hit.
MEASURED_ENDPOINT: growth inhibition (%)
Hi! Could you send only the number? It should be in %, unit omitted.

-- ask Fill in the blank: the reported growth inhibition of COc1ccc(N=NN2CCCC2)cc1 is ____.
-- reply 42

-- ask Lookup S=C(N/N=C1/CCCC/C1=N/NC(=S)N1CCOCC1)N1CCOCC1
-- reply 96

-- ask // query: CS(=O)(=O)c1ccc(C[N+]23CN4CN(CN(C4)C2)C3)cc1
-- reply -2

-- ask Now try CN1CCN(CCCN)CC1 .
-- reply 8

-- ask Repeat for the following compound: COc1ccc(Cc2nc3ccccc3s2)cc1OC
-- reply 98

-- ask Follow-up entry: Cn1c(-c2ccccc2)c(CCNC(=O)C2CCC2)c2ccccc21
-- reply 18

-- ask What about CC1CN(CCCN2c3ccccc3Sc3ccc(Cl)cc32)C(C)(C)C1 (configuration not stated) ?
-- reply 99
